STUDY TARGET: recombinant human AMCase (Homo sapiens, UniProt Q9BZP6)
Sequence (Q9BZP6 22-476): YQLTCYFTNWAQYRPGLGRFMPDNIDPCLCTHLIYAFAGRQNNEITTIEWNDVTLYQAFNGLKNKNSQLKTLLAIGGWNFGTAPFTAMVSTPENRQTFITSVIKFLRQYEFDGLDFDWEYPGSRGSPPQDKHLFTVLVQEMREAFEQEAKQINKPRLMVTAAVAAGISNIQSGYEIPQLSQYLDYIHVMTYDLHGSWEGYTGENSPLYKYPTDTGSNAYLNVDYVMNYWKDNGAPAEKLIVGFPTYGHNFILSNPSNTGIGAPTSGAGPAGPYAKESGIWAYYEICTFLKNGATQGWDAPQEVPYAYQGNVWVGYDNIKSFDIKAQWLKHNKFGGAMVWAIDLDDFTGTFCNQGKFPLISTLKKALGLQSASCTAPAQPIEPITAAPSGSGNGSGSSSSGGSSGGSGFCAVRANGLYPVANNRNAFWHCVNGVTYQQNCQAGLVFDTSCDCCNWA
PROCEDURE DETAILS: Human AMCase Activity Assay
CONDITIONS USED: recombinant hAMCase, 4-methylumbelliferyl chitobioside substrate, citrate buffer pH 5.2, 37° C., 60 minutes; read-out: Activity (IC50 value key)
Where a name gives a salt, the structure may show the parent alone.
PARAMETER MEASURED: IC50

Below: 4 molecules and their reported IC50.
> print(dat)
                                   molecule  reported
1  Nc1n[nH]c(N2CCC(CNC(=O)c3cccc(F)c3)CC2)n1 [Example 208]  > 100 µM
2  Nc1n[nH]c(N2CCN(C(=O)[C@@H](N)Cc3ccccc3Cl)CC2)n1 [Example 75-2, dihydrochloride]  > 100 µM
3  Nc1n[nH]c(N2CCC(N(CCc3ccc(Br)cc3)Cc3ccccc3)CC2)n1 [Example 146]  < 0.1 µM
4  Nc1n[nH]c(N2CCC(N(CCc3ccc(Cl)cc3)Cc3ccc(Cl)cc3Cl)CC2)n1 [Example 163]  < 0.1 µM

For the next question, use this molecule.
Prompt line: I have this molecule here, CC(Oc1ccccc1F)C(=O)N1CCN(c2nc(N)n[nH]2)CC1 (centres unmarked) [Example 44] , and I need its recorded IC50.
Response line: > 100 µM

---

STUDY TARGET: recombinant human AMCase (Homo sapiens)
PROCEDURE DETAILS: Human AMCase Activity Assay
CONDITIONS USED: recombinant hAMCase, 4-methylumbelliferyl chitobioside substrate, citrate buffer pH 5.2, 37° C., 60 minutes; read-out: Activity (IC50 value key)
pIC50: −log10 of the molar value. Where a name gives a salt, the structure may show the parent alone.
Reported pIC50 values for the following compounds.

Some solved cases for reference:
> print(dat)
                                   compound  parameter.measured      reported
1  Nc1n[nH]c(N2CCN(CCOc3ccc4[nH]ccc4c3)CC2)n1               pIC50        < 4.00
2  Cc1cccc(C(=O)NCC2CCN(c3nc(N)n[nH]3)CC2)c1C               pIC50        < 4.00
3  Nc1n[nH]c(N2CCC(N(CCc3ccc(Cl)cc3)Cc3ccc(-c4ccn[nH]4)cc3)CC2)n1 [Example 115, dihydrochloride]               pIC50        > 7.00
4       Nc1n[nH]c(N2CCN(CCOCc3ccccc3)CC2)n1               pIC50        < 4.00
5  Nc1n[nH]c(N2CCC(N(CCc3ccc(Cl)cc3)[C@@H](CO)c3ccccc3)CC2)n1               pIC50  6.00 to 7.00
6  Nc1n[nH]c(N2CCC(C(=O)NCc3ccccc3Br)CC2)n1               pIC50        < 4.00

Prompt line: Look at this compound and give its reported pIC50. `CC(C)c1ccccc1OCCN1CCN(c2nc(N)n[nH]2)CC1`
Response line: 4.00 to 5.00

Prompt line: Continue with `CN(Cc1ccc(Cl)cc1)C(=O)C1(C)CCN(c2nc(N)n[nH]2)CC1`
Response line: < 4.00

---

STUDY TARGET: recombinant human AMCase (Homo sapiens, UniProt Q9BZP6)
PROCEDURE DETAILS: Human AMCase Activity Assay
CONDITIONS USED: recombinant hAMCase, 4-methylumbelliferyl chitobioside substrate, citrate buffer pH 5.2, 37° C., 60 minutes; read-out: Activity (IC50 value key)
pIC50: −log10 of the molar value. Counter-ions that a name gives are not always drawn.
PARAMETER MEASURED: pIC50

These solved cases illustrate the format of a correct answer.
> print(dat)
                                   compound      reported
1  Nc1n[nH]c(N2CCC(CNS(=O)(=O)c3ccc(Br)cc3)CC2)n1        < 4.00
2  Nc1n[nH]c(N2CCC(C(=O)NCc3ccccc3Cl)CC2)n1        < 4.00
3  Nc1n[nH]c(N2CCC(CNCc3ccc(Cl)c(Cl)c3)CC2)n1 [Example 252, dihydrochloride]        < 4.00
4  Nc1n[nH]c(N2CCC(NS(=O)(=O)Cc3cccc(Br)c3)CC2)n1  5.00 to 6.00

Read the next record carefully.
Prompt line: Under recombinant human AMCase (Homo sapiens, UniProt Q9BZP6): pIC50 value of `CN(CCc1c(Cl)cccc1Cl)C1CCN(c2nc(N)n[nH]2)CC1` ?
Response line: 5.00 to 6.00

---

STUDY TARGET: recombinant human AMCase (Homo sapiens, UniProt Q9BZP6)
PROCEDURE DETAILS: Human AMCase Activity Assay
CONDITIONS USED: recombinant hAMCase, 4-methylumbelliferyl chitobioside substrate, citrate buffer pH 5.2, 37° C., 60 minutes; read-out: Activity (IC50 value key)
Description: Human AMCase Activity Assay The assay was run in the 96-well plate format, each reaction in the total volume of 100 μl. 4-Methylumbelliferyl B-D-N,N′ diacetylchitobioside hydrate was used as a substrate for the enzyme. Upon hydrolysis by AMCase, the substrate releases 4-methylumbelliferyl (4MU), when ionized in basic pH, emits fluorescence of 460 nm. Briefly, 40 μl of a substrate was added to each well, followed by 10 μl of compound dilution and 50 μl of hAMCase recombinant enzyme solution. […]
pIC50: −log10 of the molar value.
Here, each record is paired with measured pIC50 data.

> print(dat)
                                   compound  reported
1  Nc1n[nH]c(N2CCN(C(=O)c3cc4ccccc4o3)CC2)n1 [Example 48]    < 4.00

Turning to the following compound.
Prompt line: # query: pIC50 | item CN(CCc1ccccc1OC(F)(F)F)C1CCN(c2nc(N)n[nH]2)CC1 [Example 174] | system: recombinant human AMCase (Homo sapiens, UniProt Q9BZP6)
Response line: 4.00 to 5.00

---

STUDY TARGET: recombinant human AMCase (Homo sapiens, UniProt Q9BZP6)
PROCEDURE DETAILS: Human AMCase Activity Assay
CONDITIONS USED: recombinant hAMCase, 4-methylumbelliferyl chitobioside substrate, citrate buffer pH 5.2, 37° C., 60 minutes; read-out: Activity (IC50 value key)
Protocol: Human AMCase Activity Assay The assay was run in the 96-well plate format, each reaction in the total volume of 100 μl. 4-Methylumbelliferyl B-D-N,N′ diacetylchitobioside hydrate was used as a substrate for the enzyme. Upon hydrolysis by AMCase, the substrate releases 4-methylumbelliferyl (4MU), when ionized in basic pH, emits fluorescence of 460 nm. Briefly, 40 μl of a substrate was added to each well, followed by 10 μl of compound dilution and 50 μl of hAMCase recombinant enzyme solution. […]
PARAMETER MEASURED: IC50

Use these answered entries as a reference point.
> print(dat)
                                   compound                              study.target  parameter.measured      reported
1  Nc1n[nH]c(N2CCC(N(CCc3ccc(Cl)cc3)Cc3ccccc3C(F)(F)F)CC2)n1  recombinant human AMCase (Homo sapiens, UniProt Q9BZP6)                IC50      < 0.1 µM
2  COc1ccc(CN(CCc2ccc(Cl)cc2)C2CCN(c3nc(N)n[nH]3)CC2)cc1  recombinant human AMCase (Homo sapiens, UniProt Q9BZP6)                IC50      < 0.1 µM
3  C[C@H](CN1CCN(c2nc(N)n[nH]2)CC1)Oc1ccc(Cl)cc1 [Example 64]  recombinant human AMCase (Homo sapiens, UniProt Q9BZP6)                IC50  10 to 100 µM

Prompt line: Which measured IC50 value corresponds to `Nc1n[nH]c(N2CCC(C(=O)NCc3ccc(F)c(F)c3)CC2)n1` ?
Response line: > 100 µM

Prompt line: Follow-up item: CCc1ccc(OC(C)C(=O)N2CCN(c3nc(N)n[nH]3)CC2)cc1 (stereo not drawn)
Response line: > 100 µM

Prompt line: Okay, and CCC(Cc1ccc(Cl)cc1)N(C)C1CCN(c2nc(N)n[nH]2)CC1 (stereo not drawn) ?
Response line: 1 to 10 µM

Prompt line: Now try `Nc1n[nH]c(N2CCC(NCCc3ccc(Cl)cc3)CC2)n1` .
Response line: 1 to 10 µM

Prompt line: Here is the next compound: Nc1n[nH]c(N2CCN(CCCc3ccc(C(F)(F)F)cc3)C(CCCO)C2)n1 (stereo not drawn)
Response line: 1 to 10 µM

Prompt line: # repeat for `Nc1n[nH]c(N2CCN(C(=O)OCc3ccccc3)CC2)n1`
Response line: > 100 µM

---

STUDY TARGET: recombinant human AMCase (Homo sapiens, UniProt Q9BZP6)
PROCEDURE DETAILS: Human AMCase Activity Assay
CONDITIONS USED: recombinant hAMCase, 4-methylumbelliferyl chitobioside substrate, citrate buffer pH 5.2, 37° C., 60 minutes; read-out: Activity (IC50 value key)
PARAMETER MEASURED: IC50

Worked examples, 3 compounds total:
> print(dat)
                                   compound  parameter.measured      reported
1  Nc1n[nH]c(N2CCC(NS(=O)(=O)Cc3cccc(F)c3)CC2)n1                IC50  10 to 100 µM
2  COc1ccc(C(=O)NCC2CCN(c3nc(N)n[nH]3)CC2)cc1OC                IC50      > 100 µM
3  CC(CCc1ccc(Br)cc1)N1CCN(c2nc(N)n[nH]2)CC1 (centres unmarked)                IC50  10 to 100 µM

Prompt line: Return reported IC50; argument: `Nc1n[nH]c(N2CCCN(CCOc3ccc(Br)cc3)CC2)n1`
Response line: > 100 µM

Prompt line: Let us now turn to `CN(C)c1ccc(CCN(C)C2CCN(c3nc(N)n[nH]3)CC2)cc1`
Response line: 10 to 100 µM
